EC50 for assorted compounds
Test target: human CB2 receptor (Homo sapiens)
Sequence (P34972 whole entry): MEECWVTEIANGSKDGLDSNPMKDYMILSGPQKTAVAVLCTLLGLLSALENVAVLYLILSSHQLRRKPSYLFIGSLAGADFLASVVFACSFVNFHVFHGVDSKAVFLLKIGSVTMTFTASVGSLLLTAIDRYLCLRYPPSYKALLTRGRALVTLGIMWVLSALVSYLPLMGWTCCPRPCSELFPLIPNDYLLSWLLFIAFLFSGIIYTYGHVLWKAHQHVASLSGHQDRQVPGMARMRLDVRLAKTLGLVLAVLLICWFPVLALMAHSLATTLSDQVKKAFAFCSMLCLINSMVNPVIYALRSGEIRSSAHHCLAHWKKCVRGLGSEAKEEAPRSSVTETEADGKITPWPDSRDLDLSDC
Procedure text: Functional cell-based assay, CB2 receptor mediated change in CRE β-gal expression (agonist / inverse agonist)
Protocol conditions: SK-N-MC cells, forskolin, inverse agonist, read-out: CB2 Receptor Functional Inverse Agonist EC50

Compound	EC50
CCOC(=O)[C@H]1CCc2c(c(C(=O)NC(C)C34CC5CC(CC(C5)C3)C4)nn2C2CCCCC2)C1 (some centres unmarked)	0.22 µM
CCOC(=O)C1CCc2c(C(=O)N[C@H](C)C3CCCCC3)nn(C3CCCCC3)c2C1 (some centres unmarked)	0.36 µM
COC(=O)[C@@H]1CCc2c(c(C(=O)NC3C4CC5CC(C4)CC3C5)nn2C2CCCCC2)C1 (some centres unmarked)	0.32 µM
CCOC(=O)[C@@H]1CCc2c(c(C(=O)NC(C)C34CC5CC(CC(C5)C3)C4)nn2C2CCCCC2)C1 (some centres unmarked)	0.12 µM
CCOC(=O)C1CCc2c(c(C(=O)NC3C4(C)CCC(C4)C3(C)C)nn2Cc2ccccc2)C1 (centres unmarked)	0.0079 µM

Data credit: patent US7452997B2
